tested on: ryegrass, Italian (Italian ryegrass, Lolium multiflorum); experiment: Test A postemergence; type: in vivo; settings: Lolium multiflorum, post-emergence, 240 h, 125 g ai/ha, postemergence, visual injury vs untreated controls after approx. 10 d; 0 = no effect, 100 = complete control; read-out: Ryegrass, Italian plant response rating (0 to 100 scale)
Below: a set of entries, each annotated with reported pest or weed control at 125 g/ha.
assay_endpoint: pest or weed control at 125 g/ha (%)

[
  {
    "molecule": "CCc1cc([C@H]2CN(C)C(=O)[C@@H]2C(=O)Nc2cccc(F)c2F)cs1 [Compound 1157]",
    "unit_info": "%",
    "measured_value": 0
  },
  {
    "molecule": "Cc1ccccc1NC(=O)[C@H]1C(=O)N(C)C[C@@H]1c1ccc(C(F)(F)F)cc1 [Compound 1239]",
    "unit_info": "%",
    "measured_value": 20
  },
  {
    "molecule": "O=C1NC[C@H](c2cccc(C(F)(F)F)c2)C1C(=O)Nc1c(F)cccc1CO (some centres unmarked) [Compound 1240]",
    "unit_info": "%",
    "measured_value": 0
  },
  {
    "molecule": "O=C1NC[C@H](c2nccs2)[C@H]1C(=O)Nc1ccccc1F [Compound 1181]",
    "unit_info": "%",
    "measured_value": 0
  },
  {
    "molecule": "O=C1NC[C@H](c2cccc(I)c2)[C@H]1C(=O)Nc1ccccc1F [Compound 1160]",
    "unit_info": "%",
    "measured_value": 20
  },
  {
    "molecule": "Cc1ccc([C@H]2CCN(C)C(=O)[C@@H]2C(=O)Nc2ccc(F)c(F)c2F)cc1 [Compound 1221]",
    "unit_info": "%",
    "measured_value": 20
  },
  {
    "molecule": "CN1C[C@H](c2ccc(F)c(C#N)c2)[C@@H](C(=O)Nc2cccc(F)c2F)C1=O [Compound 1255]",
    "unit_info": "%",
    "measured_value": 20
  },
  {
    "molecule": "C=C(C)c1ccc([C@H]2CN(C)C(=O)[C@@H]2C(=O)Nc2ccc(F)c(F)c2F)cc1 [Compound 1148]",
    "unit_info": "%",
    "measured_value": 0
  }
]
